pIC50: −log10 of the molar value. Counter-ions that a name gives are not always drawn.
Reported pIC50 for target or system SMOX (Homo sapiens (Human)), by entry.
quantityKind: pIC50

(A) CC(=O)Nc1cccc(-c2cc(-c3ccccc3)nc3cc(C(=O)NCCCn4ccnc4)nn23)c1
(B) COc1ccccc1-c1cc(-c2ccccc2)nc2cc(C(=O)NCCCn3ccnc3)nn12
(C) O=C(NCC1CCc2nccn2C1)c1cc2nc(-c3ccccc3)cc(-c3ccccc3)n2n1 (centres unmarked)
(D) CN1CCC(C)(CNC(=O)c2cc3nc(-c4ccccc4)cc(-c4ccccc4)n3n2)C1 (centres unmarked)
(E) CN1CCC(NC(=O)c2cc3nc(-c4ccccc4)cc(N4CCCCC4)n3n2)C1 (centres unmarked) [Example 71, trifluoroacetate]
Req: Rank the listed compounds, smallest pIC50 first and largest last. As an answer, provide the labels arranged in the order called for.
Resp: E, A, B, D, C

(P) Cc1ccc(-c2cc(-c3ccccc3)nc3cc(C(=O)NCCCn4ccnc4)nn23)cc1
(Q) O=C(NCC1CCNC1)c1cc2nc(-c3ccccc3)cc(-c3ccccc3)n2n1 (centres unmarked)
Req: Pick one, P or Q : lowest reported pIC50. Answer = label.
Resp: P
(P: 6.17, Q: 6.38)

* * *

# measurementTarget: hPAOX (Homo sapiens (Human))
# Sequence (Q6QHF9 whole entry): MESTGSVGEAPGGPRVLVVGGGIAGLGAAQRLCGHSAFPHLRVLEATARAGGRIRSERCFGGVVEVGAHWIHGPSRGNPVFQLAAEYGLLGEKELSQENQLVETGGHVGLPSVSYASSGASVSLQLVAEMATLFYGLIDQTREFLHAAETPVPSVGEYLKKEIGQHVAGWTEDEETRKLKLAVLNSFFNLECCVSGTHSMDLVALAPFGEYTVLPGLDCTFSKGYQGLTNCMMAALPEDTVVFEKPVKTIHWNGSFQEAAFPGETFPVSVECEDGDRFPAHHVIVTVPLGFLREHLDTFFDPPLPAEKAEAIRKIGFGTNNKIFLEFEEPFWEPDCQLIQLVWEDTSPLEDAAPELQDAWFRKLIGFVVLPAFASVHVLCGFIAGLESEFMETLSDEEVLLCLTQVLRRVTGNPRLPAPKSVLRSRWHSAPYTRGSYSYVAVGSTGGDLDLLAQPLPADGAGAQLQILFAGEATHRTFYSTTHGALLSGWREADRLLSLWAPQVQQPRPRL
# experimentalDetails: Human PAOX assay (HyPerBlu chemiluminescent detection of hydrogen peroxide)
# testConditions: 60 pM recombinant PAOX, 20 μM N-acetylspermine substrate
pIC50: −log10 of the molar value.
quantityKind: pIC50

Before answering, review these 3 worked examples.
molecule	quantityKind	observed
COc1cccc(-c2cc(-c3ccccc3)nc3cc(C(=O)NCCCn4ccnc4)nn23)c1	pIC50	6.54
O=C(NCC1CCNC1)c1cc2nc(-c3ccccc3)cc(-c3ccccc3)n2n1 (centres unmarked)	pIC50	6.19
CN1CC(NC(=O)c2cc3nc(-c4ccccc4C(F)(F)F)cc(-c4ccccc4)n3n2)C1	pIC50	6.26

(A) O=C(NCCCn1ccnc1)c1cc2nc(-c3ccccc3)cc(-c3ccccc3)n2n1
(B) O=C(NCC1CCCN1)c1cc2nc(-c3ccccc3)cc(-c3ccccc3)n2n1 (centres unmarked)
(C) O=C(NCCCc1c[nH]cn1)c1cc2nc(-c3ccccc3)cc(-c3ccccc3)n2n1
(D) Cc1cccc(-c2cc(-c3ccccc3)nc3cc(C(=O)NCCCn4ccnc4)nn23)c1
(E) CN1CC(NC(=O)c2cc3nc(-c4ccccc4F)cc(-c4ccccc4)n3n2)C1
Req: Returns the items ordered by pIC50, from maximum to minimum. List labels; respect the requested ordering.
Resp: C, D, B, A, E
(C: 7.31, D: 6.91, B: 6.71, A: 6.13, E: 5.85)

* * *

# measurementTarget: hPAOX (Homo sapiens (Human))
# experimentalDetails: Human PAOX assay (HyPerBlu chemiluminescent detection of hydrogen peroxide)
# testConditions: 60 pM recombinant PAOX, 20 μM N-acetylspermine substrate
pIC50: −log10 of the molar value.
quantityKind: pIC50

// worked examples, pIC50 included
compound	measurementTarget	observed
CN1CC(NC(=O)c2cc3nc(N4CCCCC4)cc(-c4ccccc4)n3n2)C1 [Example 99]	hPAOX (Homo sapiens (Human))	5.15
O=C(NCCCn1ccnc1)c1cc2nc(-c3ccccc3)cc(N3CCOCC3)n2n1 [Example 59]	hPAOX (Homo sapiens (Human))	5.24

(I) O=C(NCCc1c[nH]cn1)c1cc2nc(-c3ccccc3)cc(-c3ccccc3)n2n1 [Example 34]
(II) O=C(NCCCN1CCOCC1)c1cc2nc(-c3ccccc3)cc(-c3ccccc3)n2n1 [Example 13]
(III) Cn1ccnc1CCCNC(=O)c1cc2nc(-c3ccccc3)cc(-c3ccccc3)n2n1 [Example 1]
(IV) O=C(NCCNc1ccccn1)c1cc2nc(-c3ccccc3)cc(-c3ccccc3)n2n1 [Example 28]
(V) O=C(NCCCn1ccnc1)c1cc2nc(-c3ccccc3)cc(-c3ccccn3)n2n1 [Example 91]
Req: Rank the 5 compounds: largest pIC50 first, smallest last. Sort the labels as requested; that list is your answer.
Resp: I, IV, III, V, II
(I: 7.96, IV: 7.07, III: 6.40, V: 5.69, II: 5.28)

Attribution: patent US20250161307A1
